Test system: Hs683 anaplastic oligodendroglioma cells
Experiment: MTT antiproliferative assay, Hs683
Assay type: cell-based
Details: Homo sapiens, Hs 683, 48 h treatment, ± SD, apoptosis-sensitive reference, read-out: GI50 in vitro, Hs683
Experimental: […] Antiproliferative properties of the synthesized compounds were evaluated by the MTT assay. […] A490 was measured using a Molecular Devices Thermomax plate reader. […]
metric.name: GI50 (µM)

In [3]: df
Out[3]:
                                   compound                            assayed_target  readout_units  observed
0  CN(C)c1ccc(C(C(=O)NO)c2c(-c3ccc4ccccc4c3)[nH]c3ccccc23)cc1 (stereo not drawn)  Hs683 anaplastic oligodendroglioma cells             µM       5.1

[P] CCCCn1c(-c2ccc3ccccc3c2)c(C(C(=O)NO)c2ccccc2)c2ccccc21 (stereo not drawn)
[Q] CC(C)c1ccc(C(C(=O)NO)c2c(-c3ccc4ccccc4c3)[nH]c3ccccc23)cc1 (stereo not drawn)
Request: Parameter metric = GI50. Return the lower-valued option from P and Q . Reply briefly: the label of your chosen item.
Result: Q
(Q: 6.1 µM, P: 10.8 µM)

[I] Cc1ccc(C(C(=O)NO)c2c(-c3ccc4ccccc4c3)[nH]c3ccccc23)cc1C (stereo not drawn)
[II] O=C(NO)C(c1ccccc1)c1c(-c2ccc3ccccc3c2)n(Cc2ccccc2)c2ccccc12 (stereo not drawn)
Request: For the pair I and II , which entry has the numerically smaller recorded GI50? To answer, give the label that identifies your chosen option.
Result: I

====

Tested on: HeLa cervical adenocarcinoma cells
Experiment: MTT antiproliferative assay, HeLa
Type: cell-based
Conditions: Homo sapiens, Table 1, 48 h treatment, ± SD, read-out: cell viability GI50, HeLa
metric.name: GI50 (µM)

Worked examples, 4 compounds total:
                                   compound  observed
0  Cn1c(-c2ccc3ccccc3c2)c(C(C(=O)NO)c2cccc(F)c2)c2ccccc21 (stereo not drawn)      36.8
1  O=C(NO)C(c1ccccc1)c1c(-c2ccccc2)[nH]c2ccccc12 (stereo not drawn)        23
2  Cn1c(-c2ccc3ccccc3c2)c(C(C(=O)NO)c2ccccc2)c2ccccc21 (stereo not drawn)      19.7
3  O=C(NO)C(c1ccccc1)c1c(-c2cccc3ccccc23)[nH]c2ccccc12 (stereo not drawn)      25.7

[I] Cn1c(-c2ccc3ccccc3c2)c(C(C(=O)NO)c2ccccc2Br)c2ccccc21 (stereo not drawn)
[II] O=C(NO)C(c1ccccc1)c1c(-c2ccc3ccccc3c2)[nH]c2ccccc12 (stereo not drawn)
Request: In the pair I and II , the larger recorded GI50 belongs to which? // respond with label for picked entry
Result: I
(I: 24 µM, II: 3.6 µM)

====

System: MCF-7 breast adenocarcinoma cells
Assay: MTT antiproliferative assay, MCF-7
Format: cell-based
Conditions: Homo sapiens, MCF7, Table 1, 48 h treatment, ± SD, read-out: cell viability GI50, MCF7
Protocol: This finding led to an exploration of the SAR analyses by synthesizing the first generation compounds 3 containing diverse substituents at different positions in the 2-aryl-2-(3-indolyl)acetohydroxamate skeleton and testing this series for in vitro growth inhibition using the MTT colorimetric assay against two cell lines, human HeLa cervical and MCF-7 breast adenocarcinomas (Table 1). […] Antiproliferative properties of the synthesized compounds were evaluated by the MTT assay. […]
metric.name: GI50 (µM)

>>> print(df.to_string())
                                   molecule                     assayed_target  metric_name  observed
0  Cn1c(-c2ccc3ccccc3c2)c(C(C(=O)NO)c2ccccc2Br)c2ccccc21 (stereo not shown)  MCF-7 breast adenocarcinoma cells         GI50      11.2
1  Cn1c(-c2ccc3ccccc3c2)c(C(C(=O)NO)c2ccccc2)c2ccccc21 (stereo not shown)  MCF-7 breast adenocarcinoma cells         GI50        10
